These entries and their values trace back to patent US11795460B2.

Consider the following molecules and their measured Avg % Deletion readings.
system: TTR; experiment: TTR editing in primary human hepatocytes transfected with Spy Cas9 mRNA and sgRNAs (Table 13); type: cell-based; settings: primary human hepatocytes co-transfected with Spy Cas9 mRNA (SEQ ID NO:2) and sgRNAs, 12.5 nM
Strand notation (5' to 3'): a small letter for the sugar, then the base; units joined by * are phosphorothioate-linked, units joined directly phosphodiester-linked; [ ] holds rarer units or linkages, { } end groups; capitals alone tell only the bases. m = 2'-O-methyl; r = 2'-OH (RNA)
measured.attribute: Avg % Deletion (%)

INSERT INTO measurements (molecule, val) VALUES
  ('G000491: TTR sgRNA modified sequence, Human, SEQ ID No. 98; guide sequence of CR003338 (nucleic acid) guide: mA*mU*mA*rCrCrArGrUrCrCrArGrCrArArGrGrCrArGrGrUrUrUrUrArGrAmGmCmUmAmGmAmAmAmUmAmGmCrArArGrUrUrArArArArUrArArGrGrCrUrArGrUrCrCrGrUrUrArUrCrAmAmCmUmUmGmAmAmAmAmAmGmUmGmGmCmAmCmCmGmAmGmUmCmGmGmUmGmCmU*mU*mU*mU', 3.60),
  ('G000570: TTR sgRNA modified sequence, Human, SEQ ID No. 111; guide sequence of CR003347 (nucleic acid) guide: mC*mA*mU*rUrGrArUrGrGrCrArGrGrArCrUrGrCrCrUrGrUrUrUrUrArGrAmGmCmUmAmGmAmAmAmUmAmGmCrArArGrUrUrArArArArUrArArGrGrCrUrArGrUrCrCrGrUrUrArUrCrAmAmCmUmUmGmAmAmAmAmAmGmUmGmGmCmAmCmCmGmAmGmUmCmGmGmUmGmCmU*mU*mU*mU', 0.35),
  ('G000488: TTR sgRNA modified sequence, Human, SEQ ID No. 95; guide sequence of CR003346 (nucleic acid) guide: mA*mA*mA*rGrUrUrCrUrArGrArUrGrCrUrGrUrCrCrGrGrUrUrUrUrArGrAmGmCmUmAmGmAmAmAmUmAmGmCrArArGrUrUrArArArArUrArArGrGrCrUrArGrUrCrCrGrUrUrArUrCrAmAmCmUmUmGmAmAmAmAmAmGmUmGmGmCmAmCmCmGmAmGmUmCmGmGmUmGmCmU*mU*mU*mU', 37.48),
  ('G000567: TTR sgRNA modified sequence, Human, SEQ ID No. 109; guide sequence of CR003352 (nucleic acid) guide: mG*mA*mA*rArGrGrCrUrGrCrUrGrArUrGrArCrArCrCrGrUrUrUrUrArGrAmGmCmUmAmGmAmAmAmUmAmGmCrArArGrUrUrArArArArUrArArGrGrCrUrArGrUrCrCrGrUrUrArUrCrAmAmCmUmUmGmAmAmAmAmAmGmUmGmGmCmAmCmCmGmAmGmUmCmGmGmUmGmCmU*mU*mU*mU', 10.02),
  ('G000498: TTR sgRNA modified sequence, Human, SEQ ID No. 105; guide sequence of CR003359 (nucleic acid) guide: mA*mG*mU*rGrArGrUrCrUrGrGrArGrArGrCrUrGrCrArGrUrUrUrUrArGrAmGmCmUmAmGmAmAmAmUmAmGmCrArArGrUrUrArArArArUrArArGrGrCrUrArGrUrCrCrGrUrUrArUrCrAmAmCmUmUmGmAmAmAmAmAmGmUmGmGmCmAmCmCmGmAmGmUmCmGmGmUmGmCmU*mU*mU*mU', 14.90),
  ('G000485: TTR sgRNA modified sequence, Human, SEQ ID No. 92; guide sequence of CR003336 (nucleic acid) guide: mC*mC*mU*rCrCrUrCrUrGrCrCrUrUrGrCrUrGrGrArCrGrUrUrUrUrArGrAmGmCmUmAmGmAmAmAmUmAmGmCrArArGrUrUrArArArArUrArArGrGrCrUrArGrUrCrCrGrUrUrArUrCrAmAmCmUmUmGmAmAmAmAmAmGmUmGmGmCmAmCmCmGmAmGmUmCmGmGmUmGmCmU*mU*mU*mU', 1.97);
